System: Staph.aureus A 321
Test: agar serial dilution test
Type: cell-based, Staphylococcus aureus
Conditions used: Staphylococcus aureus, A321, 24 h, agar serial dilution, 24 hours, 37° C.; read-out: minimal inhibitory concentration (MIC)
Parameter: MIC (mg/L)
Number only, in mg/L; omit the unit.

Q: Which measured MIC value corresponds to Cc1noc(CC(=O)N[C@@H]2C(=O)N3[C@@H]2SC(C)(C)[C@@H]3C(=O)O)n1 [Example 11B] ?
Ans: 0.12

Q: Same thing, different compound: Cc1nc(CC(=O)N[C@@H]2C(=O)N3C(C(=O)O)=C(CN=[N+]=[N-])CS[C@H]23)no1 [Example 18]
Ans: 1

Q: Same again, this time with CCc1noc(C(C)C(=O)N[C@@H]2C(=O)N3[C@@H]2SC(C)(C)[C@@H]3C(=O)O)n1 (stereo partly shown) [Example 11M]
Ans: 0.12

Q: CC(=O)OCC1=C(C(=O)O)N2C(=O)[C@@H](NC(=O)Cc3noc(Cc4ccccc4)n3)[C@H]2SC1 [Compound C] ?
Ans: 0.25
